- measurement-protocol: Phase solubility studies (Higuchi and Connors) with RAMEB
- experimental-conditions: 25 °C, aqueous with cosolvent or surfactant or cyclodextrin, thermodynamic from solid
assay-metric: solubility at 1 week

Which solubility at 1 week is reported for this molecule? c1ccc2cc3ccccc3cc2c1
≤ 41 µg/mL

###

- measurement-protocol: physchem
- experimental-conditions: 25 °C, water, thermodynamic from solid
assay-metric: solubility (µg/mL)
Quick note: give the figure in µg/mL, leave out the unit.

Return reported solubility; argument: c1ccc2c(c1)-c1cccc3cccc-2c13
0.26

###

- measurement-protocol: PAHs aqueous solubility in the absence of CD
- experimental-conditions: 25 °C, water, thermodynamic from solid
assay-metric: solubility at 1 week (µg/mL)
Express it in µg/mL; write the number only.

c1ccc2cc3ccccc3cc2c1    0.076

Give the measured solubility at 1 week of c1ccc2c(c1)ccc1ccccc12 .
1.2

Param item = c1cc2c3c(cccc3c1)CC2 ; retrieve measured solubility at 1 week.
1.93
